From: patent US12435087B2

molecular target: DCN1 (DCUND1) protein PONY domain (Homo sapiens (Human), UniProt Q96GG9); experiment: TR-FRET assay (binding to DCN-1, displacement of FAM-labeled probe); conditions: 24 hr after treatment with compound; read-out: TR FRET IC50 24 hr
Sequence (Q96GG9 60-248): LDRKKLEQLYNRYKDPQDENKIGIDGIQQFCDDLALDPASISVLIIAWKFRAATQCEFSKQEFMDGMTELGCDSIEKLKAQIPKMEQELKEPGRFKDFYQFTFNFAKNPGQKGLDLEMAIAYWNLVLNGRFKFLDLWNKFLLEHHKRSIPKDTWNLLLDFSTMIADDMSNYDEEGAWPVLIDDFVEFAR
pIC50: −log10 of the molar value.
Each item that follows carries a reported pIC50.

Solved cases (2 shown):
compound | pIC50
C/C=C(\CN1CCN(C2COC2)CC1)C(=O)Nc1cccc([C@@H]2c3c(C)nn(-c4ccccc4)c3N(CC)C(=O)[C@H]2NC(=O)c2nccc(C(F)(F)F)n2)c1 (racemic) | ≥ 6.70
C=C(CN1CCOCC1)C(=O)Nc1ccccc1[C@H]1c2cnn(-c3ccccc3)c2N(CC)C(=O)[C@@H]1NC(=O)c1cccc(C(F)(F)F)c1 (racemic) | ≥ 6.70

Indicate the recorded pIC50 value for this compound: CCN1C(=O)[C@@H](NC(=O)c2cccc(C(F)(F)F)c2)[C@H](c2cccc(CN(C)C#N)c2)c2c(C)nn(-c3ccccc3)c21 (racemic)
5.52 to 6.00

Indicate the recorded pIC50 value for this compound: C=C(C)S(=O)(=O)Nc1cccc([C@H]2c3c(C)nn(-c4ccccc4)c3N(CC)C(=O)[C@@H]2NC(=O)c2cccc(C(F)(F)F)c2)c1 (racemic)
5.52 to 6.00

Indicate the recorded pIC50 value for this compound: CCN1C(=O)[C@@H](NC(=O)c2cccc(C(F)(F)F)c2)[C@H](c2ccc(F)c(NC(=O)/C=C/CN(C)C)c2)c2cnn(-c3ccccc3)c21
≥ 6.70
